These entries and their values trace back to ChEMBL document CHEMBL4000179.

Assay: Stability in 0.2 M aqueous HCl after 6 hrs by HPLC-MS analysis
Format: physicochemical
Settings: read-out: Stability
Where a SMILES comes first, the peptide text is derived from it. Bridges are numbered along the chain shown (N, C = ends).
measure name: remaining at 6 h

[[record]]
compound = "CC(C)C[C@H](NC(=O)[C@@H]1CCCN1C(=O)[C@H](CO)NC(=O)[C@H](Cc1ccccc1)NC(=O)CNC(=O)[C@@H]1CCCN1C(=O)[C@@H]1CCCN1C(=O)[C@H](CCCN=C(N)N)NC(=O)[C@@H](N)CCCCN)C(=O)O"
measure_name = "remaining at 6 h"
value_observed = "> 80%"


Quick one: give measured remaining at 6 h for CC(C)C[C@@H]1NC(=O)[C@@H]2CCCN2C(=O)[C@H](CO)NC(=O)[C@H](Cc2ccccc2)NC(=O)CNC(=O)[C@@H]2CCCN2C(=O)[C@@H]2CCCN2C(=O)[C@H](CCCNC(=N)N)NC(=O)[C@H](CCCCN)NC(=O)[C@@H](NC(=O)[C@H](CCCNC(=N)N)NC(=O)CN)CSSC[C@@H](C(=O)N[C@@H](Cc2ccccc2)C(=O)N2CCC[C@H]2C(=O)N[C@@H](CC(=O)O)C(=O)O)NC1=O (H-GRCKRPPGFSPLCFPD-OH; disulfide 3-13)
> 80%

---

Attribute: remaining at 6 h
Assay: Metabolic stability in human serum assessed as parent compound remaining after 6 hrs by UPLC method
Format: ADME, cell-free
Conditions: read-out: Stability
Where a SMILES comes first, the peptide text is derived from it. Bridges are numbered along the chain shown (N, C = ends).

[[record]]
compound = "CC[C@H](C)[C@@H]1NC(=O)[C@@H]2CCCN2C(=O)[C@@H]2CCCN2C(=O)[C@H]([C@@H](C)CC)NC(=O)[C@H](CO)NC(=O)[C@H](CCCCN)NC(=O)[C@H]([C@@H](C)O)NC(=O)[C@@H]2CSSC[C@H](NC1=O)C(=O)N[C@@H](CCCCN)C(=O)N[C@@H](CCCNC(=N)N)C(=O)N1CCC[C@H]1C(=O)N1CCC[C@H]1C(=O)NCC(=O)N[C@@H](Cc1ccccc1)C(=O)N[C@@H](CO)C(=O)N1CCC[C@H]1C(=O)N[C@@H](CC(C)C)C(=O)N2 (cyclo(CKRPPGFSPLCTKSIPPI); disulfide 1-11)"
value_observed = "> 90%"


Then this compound:
Quick one: give measured remaining at 6 h for CC(C)C[C@@H]1NC(=O)[C@@H]2CCCN2C(=O)[C@H](CO)NC(=O)[C@H](Cc2ccccc2)NC(=O)CNC(=O)[C@@H]2CCCN2C(=O)[C@@H]2CCCN2C(=O)[C@H](CCCNC(=N)N)NC(=O)[C@H](CCCCN)NC(=O)[C@@H]2CSSC[C@H](NC1=O)C(=O)N[C@@H](Cc1ccccc1)C(=O)N1CCC[C@H]1C(=O)N[C@@H](CC(=O)O)C(=O)NCC(=O)N[C@@H](CCCNC(=N)N)C(=O)N2 (cyclo(CFPDGRCKRPPGFSPL); disulfide 1-7)
> 90%

---

Target: Serine protease 1 (Bos taurus)
Assay: Inhibition of bovine beta-trypsin up to 100 uM using BAPNA as substrate preincubated for 15 mins followed by substrate addition measured over 60 mins by spectrometric method
Activity calls are given as the source filed them. No cut-off for these calls is given here. Where a SMILES comes first, the peptide text is derived from it. Bridges are numbered along the chain shown (N, C = ends).
measure name: inhibition

[[record]]
compound = "CC[C@H](C)[C@@H]1NC(=O)[C@@H]2CCCN2C(=O)[C@@H]2CCCN2C(=O)[C@H]([C@@H](C)CC)NC(=O)[C@H](CO)NC(=O)[C@H](CCCCN)NC(=O)[C@H]([C@@H](C)O)NC(=O)[C@@H]2CSSC[C@H](NC1=O)C(=O)N[C@@H](CCCCN)C(=O)N[C@@H](CCCNC(=N)N)C(=O)N1CCC[C@H]1C(=O)N1CCC[C@H]1C(=O)NCC(=O)N[C@@H](Cc1ccccc1)C(=O)N[C@@H](CO)C(=O)N1CCC[C@H]1C(=O)N[C@@H](CC(C)C)C(=O)N2 (cyclo(CKRPPGFSPLCTKSIPPI); disulfide 1-11)"
value_observed = "Active"

[[record]]
compound = "CC[C@H](C)[C@@H]1NC(=O)[C@@H]2CCCN2C(=O)[C@@H]2CCCN2C(=O)[C@H]([C@@H](C)CC)NC(=O)[C@H](CO)NC(=O)[C@H](CCCCN)NC(=O)[C@H]([C@@H](C)O)NC(=O)[C@@H]2CSSC[C@H](NC1=O)C(=O)N[C@@H](Cc1ccccc1)C(=O)N1CCC[C@H]1C(=O)N[C@@H](CC(=O)O)C(=O)NCC(=O)N[C@@H](CCCNC(=N)N)C(=O)N2"
value_observed = "Active"

[[record]]
compound = "CC[C@H](C)[C@@H]1NC(=O)[C@@H]2CCCN2C(=O)[C@@H]2CCCN2C(=O)[C@H]([C@@H](C)CC)NC(=O)[C@H](CO)NC(=O)[C@H](CCCCN)NC(=O)[C@H]([C@@H](C)O)NC(=O)[C@@H](N)CSSC[C@@H](C(=O)N[C@@H](CCCCN)C(=O)N[C@@H](CCCNC(=N)N)C(=O)N2CCC[C@H]2C(=O)N2CCC[C@H]2C(=O)NCC(=O)N[C@@H](Cc2ccccc2)C(=O)N[C@@H](CO)C(=O)N2CCC[C@H]2C(=O)N[C@@H](CC(C)C)C(=O)O)NC1=O (H-CTKSIPPICKRPPGFSPL-OH; disulfide 1-9)"
value_observed = "Active"

